Consider the following compounds and their measured IL-18 release readings.
System: IL-18
ASSAY PROTOCOL: IL-18 release in supernatants of LPS-treated primary microglial cells (ELISA)
Type: cell-based, Wistar rats
EXPERIMENTAL CONDITIONS: C3: 5.0 μg/mL, 72 h, LPS-treated
// note: answer is a bare numeric in pg/mL

C=C(C)[C@@H]1C/C=C(\C(=O)OC)CC(=O)C[C@]2(C)CC(=O)[C@H](CC(=O)C1)O2 [Compound 4] : 312
C=C(C)C1CCC23OC2C(CC2(C)CC(=O)C(CC(=O)C1)O2)OC3=O (centres unmarked) [Compound 3, scabrolide D] : 318
C=C(C)[C@@H]1C/C=C2\C(=O)O[C@@H](C[C@]3(C)CC(=O)[C@@H](CC(=O)C1)O3)[C@@H]2O [Compound 2, sinuleptolide] : 155
C=C(C)[C@@H]1C/C=C2\C(=O)O[C@@H](C[C@]3(C)CC(=O)[C@H](CC(=O)C1)O3)[C@@H]2O [Compound 1, 5-epi-sinuleptolide] : 315

Proceeding to the next compound to report its IL-18 release.
Sample C=C(C)[C@@H]1CC(=O)[C@H]2[C@H](C1)[C@@H]1C(=O)O[C@@H]3C[C@@]4(C)O[C@H]2C(=O)[C@@H]4[C@H]13 [Compound 6, ineleganolide] — what was its IL-18 release?
312
